Ref: patent US20220348590A1

Target: human recombinant COX2 (hCOX2) (UniProt P35354)
Experiment: LCMS-based COX2 enzymatic inhibition assay (PGE2 quantification)
Format: biochemical
Parameters: COX2 2 minutes pge2/pge2d4 area ratio Avg; other: 2 minutes; readout pge2/pge2d4 area ratio; average; COX2 2 minutes pge2/pge2d4 area ratio Avg; LLE; average LLE; COX2 2 minutes pge2 area (counts) Avg; readout pge2 area (counts); other: 2 min; "ovine COX2 (oCOX2), human recombinant COX2 (hCOX2)"
Details: 2 minutes; readout pge2 area (counts); average LLE
From the text: We have adapted a previously reported cyclooxygenase enzymatic assay utilizing LCMS quantification of PGE2 as the product of COX-1 and COX2 catalyzed conversion of arachidonic acid to evaluate the binding properties of newly synthesized ligands [Cao, 2011]. […] Using these enzymatic assays, we have evaluated>200 newly synthesized ligands against COX2 and >20 ligands against COX-1. […]
Returns one of Yes or No; Yes when COX2 2 minutes pge2 area (counts) Avg. LLE is >= 4.

Reference set (3 entries):
{"Smiles": "CS(=O)(=O)c1ccc(-c2ccc3ccn(Cc4ccoc4)c3n2)cc1", "System": "human recombinant COX2 (hCOX2) (UniProt P35354)", "Group Label": "No"}
{"Smiles": "CS(=O)(=O)c1ccc(-c2cccc(OCc3ccoc3)n2)cc1", "System": "human recombinant COX2 (hCOX2) (UniProt P35354)", "Group Label": "Yes"}
{"Smiles": "CS(=O)(=O)c1ccc(-c2ccc(F)c(NCc3ccco3)n2)cc1", "System": "human recombinant COX2 (hCOX2) (UniProt P35354)", "Group Label": "Yes"}

Input line: Please check the record CS(=O)(=O)c1ccc(-c2cccc(/C=C\c3cccs3)n2)cc1 and state if its COX2 2 minutes pge2 area (counts) Avg. LLE is at or above 4.
Output line: No

Input line: // next record CS(=O)(=O)c1ccc(-c2cncc(NCc3nccs3)n2)cc1
Output line: Yes

* * *

Target: human recombinant COX2 (hCOX2) (UniProt P35354)
Assay: LCMS-based COX2 enzymatic inhibition assay (PGE2 quantification)
Format: biochemical
Design: COX2 2 minutes pge2/pge2d4 area ratio Avg; other: 2 minutes; readout pge2/pge2d4 area ratio; average; COX2 2 minutes pge2/pge2d4 area ratio Avg; LLE; average LLE; COX2 2 minutes pge2 area (counts) Avg; readout pge2 area (counts); other: 2 min; "ovine COX2 (oCOX2), human recombinant COX2 (hCOX2)"
Details: 2 minutes; readout pge2/pge2d4 area ratio; average LLE
Collected COX2 2 minutes pge2/pge2d4 area ratio Avg. LLE values appear next to each entry.
Respond using a number only.

{"Compound": "C[C@H](Nc1cncc(-c2ccc(S(C)(=O)=O)cc2)n1)c1cccs1", "System": "human recombinant COX2 (hCOX2) (UniProt P35354)", "Recorded Value": 4.384}

Input line: Short answer please: COX2 2 minutes pge2/pge2d4 area ratio Avg. LLE, human recombinant COX2 (hCOX2) (UniProt P35354), entry COc1ccc(-c2ccc(S(C)(=O)=O)cc2)nc1NCc1cccs1
Output line: 3.162

Input line: // next record Cc1coc(CNc2cccc(-c3ccc(S(C)(=O)=O)cc3)n2)c1
Output line: 4.23

Input line: // next record CS(=O)(=O)c1ccc(-c2cnc3ccn(Cc4nccs4)c3n2)cc1
Output line: 3.19

Input line: // next record CS(=O)(=O)c1ccc(-c2cccc([C@@H](O)Cc3cccs3)n2)cc1
Output line: 3.07

Input line: // next record CS(=O)(=O)c1ccc(-c2cccc(NCc3ccns3)n2)cc1
Output line: 4.854

Input line: // next record CS(=O)(=O)c1ccc(-c2cncc(SCc3cocn3)n2)cc1
Output line: 3.44

Input line: // next record Cn1cccc1CNc1cccc(-c2ccc(S(C)(=O)=O)cc2)n1
Output line: 4.259

Input line: // next record NS(=O)(=O)c1ccc(-c2cncc(OCc3cccs3)n2)cc1
Output line: 6.484

Input line: // next record CS(=O)(=O)c1ccc(-c2cccc(C3CC3c3ccoc3)n2)cc1 (single isomer, unassigned) [Compound 177]
Output line: 3.065

Input line: // next record CS(=O)(=O)c1ccc(-c2cncc(NCc3ccsc3)n2)cc1
Output line: 4.901

Input line: // next record C[C@@H](Nc1cccc(-c2ccc(S(C)(=O)=O)cc2)n1)c1ccoc1 (single isomer, unassigned)
Output line: 3.614

Input line: // next record CS(=O)(=O)c1ccc(-c2cccc(NCc3ccon3)n2)cc1
Output line: 5.05

Input line: // next record COc1ccc(NCc2ccco2)nc1-c1ccc(S(C)(=O)=O)cc1
Output line: 4.057

Input line: // next record CS(=O)(=O)c1ccc(-c2cccc(NCc3nccs3)n2)cc1
Output line: 3.99

Input line: // next record CS(=O)(=O)c1ccc(-c2ccc(F)c(OCc3cccs3)n2)cc1
Output line: 3.877

Input line: // next record CS(=O)(=O)c1ccc(-c2cncc(OC[C@H]3CCCS3)n2)cc1 (single isomer, unassigned)
Output line: 4.116

Input line: // next record CS(=O)(=O)c1ccc(-c2cncc(OC[C@H]3CCCO3)n2)cc1
Output line: 4.199

Input line: // next record CS(=O)(=O)c1ccc(-c2ccc3ccn(Cc4ccco4)c3n2)cc1
Output line: 3.446

Input line: // next record CSc1ccc(NCc2cccs2)nc1-c1ccc(S(C)(=O)=O)cc1
Output line: 3.9449

Input line: // next record C[S+]([O-])c1ccc(-c2cccc(OCc3cccs3)n2)cc1 (stereo not drawn)
Output line: 3.382

Input line: // next record CS(=O)(=O)c1ccc(-c2cncc(N3CCOCC3)n2)cc1
Output line: 5.044

* * *

Assay: mouse brain protein binding (BPB) assay
Type: in vitro ADME
Collected fraction unbound values appear next to each entry.

Take a look at these entries with their results.
{"Smiles": "CS(=O)(=O)c1ccc(-c2cccc(/C=C\\c3ccoc3)n2)cc1", "fraction unbound": 0.011}
{"Smiles": "COc1ccc(NCc2cccs2)nc1-c1ccc(S(C)(=O)=O)cc1", "fraction unbound": 0.012}
{"Smiles": "CS(=O)(=O)c1ccc(-c2cccc(NCc3ccoc3)n2)cc1", "fraction unbound": 0.022}
{"Smiles": "CS(=O)(=O)c1ccc(-c2cccc(NCc3ccco3)n2)cc1", "fraction unbound": 0.019}

Turning to the following compound.
Input line: Give its fraction unbound value. Item: CS(=O)(=O)c1ccc(-c2cncc(NCc3cccs3)n2)cc1
Output line: 0.02

* * *

Biological target: ovine COX-1 (oCOX-1) (Ovis aries, UniProt P05979)
Construct: purchased Cayman Chemicals (Ann Arbor, Mich.)
Sequence (P05979 25-600): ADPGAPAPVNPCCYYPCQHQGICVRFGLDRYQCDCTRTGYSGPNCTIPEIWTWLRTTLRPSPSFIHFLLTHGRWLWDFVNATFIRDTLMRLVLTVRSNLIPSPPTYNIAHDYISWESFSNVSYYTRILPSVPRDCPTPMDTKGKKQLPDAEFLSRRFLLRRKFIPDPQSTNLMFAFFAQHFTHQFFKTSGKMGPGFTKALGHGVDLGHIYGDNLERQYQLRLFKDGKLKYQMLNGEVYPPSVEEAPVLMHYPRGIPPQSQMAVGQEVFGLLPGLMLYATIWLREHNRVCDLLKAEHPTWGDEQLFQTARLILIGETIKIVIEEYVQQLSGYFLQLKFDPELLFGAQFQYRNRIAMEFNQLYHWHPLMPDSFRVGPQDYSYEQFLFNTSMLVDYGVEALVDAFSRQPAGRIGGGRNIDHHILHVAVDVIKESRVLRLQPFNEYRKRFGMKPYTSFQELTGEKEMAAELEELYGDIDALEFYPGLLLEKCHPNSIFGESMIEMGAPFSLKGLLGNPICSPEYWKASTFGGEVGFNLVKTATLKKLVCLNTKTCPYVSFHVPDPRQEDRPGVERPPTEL
Assay: LCMS-based COX-1 enzymatic inhibition assay (PGE2 quantification)
Format: biochemical
Conditions: 10 minutes; readout pge2 area (counts); average LLE
Measurement Label: COX1 10 minutes pge2 area (counts) Avg. LLE

{"Compound": "CS(=O)(=O)c1ccc(-c2cccc(OCc3cccs3)n2)cc1 [Compound 1]", "Recorded Value": 1.136}
{"Compound": "COc1cc(-c2ccc(S(C)(=O)=O)cc2)cc(NCc2cccs2)n1 [Compound 54]", "Recorded Value": 0.394}
{"Compound": "CS(=O)(=O)c1ccc(-c2cccc(OCc3ccoc3)n2)cc1 [Compound 16]", "Recorded Value": 1.072}
{"Compound": "Cc1occc1CNc1cccc(-c2ccc(S(C)(=O)=O)cc2)n1 [Compound 21]", "Recorded Value": 1.134}
{"Compound": "CS(=O)(=O)c1ccc(-c2ccc(F)c(NCc3ccoc3)n2)cc1 [Compound 33]", "Recorded Value": 1.362}

Turning to the following compound.
Input line: Give its COX1 10 minutes pge2 area (counts) Avg. LLE value. Item: NS(=O)(=O)c1ccc(-c2cncc(OCc3cccs3)n2)cc1 [Compound 3]
Output line: 4.323
